Taken from PubChem BioAssay (NCI).

Provide the recorded TGI for the entries that follow.
- Tested on: OVCAR-3 ovarian
- test details: NCI tumour cell line growth inhibition, 48 h
Give bare numbers, in µM.

1) CC(=O)c1cccc(Nc2nc3ccccc3c3[nH]c4ccccc4c23)c1: 6.56
2) CCOC(=O)c1cc2c(n1Cc1ccccc1OC)-c1oncc1CCC2: 6.49
3) CC[Si](CC)(CC)OC1[C@@H](O[Si](CC)(CC)CC)[C@@H](CNC(=O)NC)O[C@H]1n1cnc2c(NC(=O)Nc3ccccc3)ncnc21 (stereo partly specified): 7.7
4) C=C1C(=O)O[C@H]2[C@H]1CC/C(COC(=O)/C=C\C(=O)NCc1ccc(Cn3c(=O)sn(-c4ccc(Cl)cc4)c3=O)cc1)=C\CC[C@@]1(C)O[C@@H]21: 0.821

Return reported TGI values for all items listed beneath this line.
1. COC(=O)c1cc2c(cc1C(=O)OC)[C@@]1(C)CCCC(C)(C)C1CC2 (stereo partly specified)
2. CCC(C(=O)[C@@H](C)[C@@H](O)[C@H](C)[C@@H]1O[C@@H]([C@@H](CC)C(=O)ONC(=O)c2ccccc2)CC[C@@H]1C)[C@H]1O[C@]2(C=CC(=O)[C@]3(CC[C@@](C)([C@H]4CC[C@](O)(CC)[C@H](C)O4)O3)O2)[C@H](C)C[C@@H]1C (stereo partly specified)
3. CCOC(OC1=C(C#N)CCCC1)C(CC)[Se]c1ccccc1[N+](=O)[O-] (stereo unspecified)
4. CC(=O)c1ccc(Oc2c3ccccc3nc3occc23)cc1
5. CN(C)CCNC(=O)c1cccc2c1nc(-c1ccncc1)c1ccccc12
6. Cc1ccc(C2C3Cc4ccccc4C3=NN2c2ccc(S(=O)(=O)NC(=O)Nc3ccccc3)cc2)cc1 (stereo unspecified)
7. C(=C\c1ccc(OCC2CO2)cc1)/C1=NCOC1 (stereo unspecified)

[25, 1.29, 95.4, 6.58, 30.4, 36.5, 29.1]

Return reported TGI values for all items listed beneath this line.
1. COc1cc(NCCC2CCCCN2)c2ncccc2c1OC (stereo unspecified)
2. CN(C)C/C=C/C(=O)Nc1cc2c(Nc3cccc(Cl)c3F)ncnc2cc1OCCOC(F)F
3. O=C(CCl)Nc1ccc(Cc2ccc(NC(=O)CCl)cc2)cc1
4. Cc1cc(OCc2nn(CN3CCN(C)CC3)c(=S)n2/N=C/c2ccc(F)cc2)ccc1Cl
5. CC(C)(C)OC(=O)C1/C(=C/CBr)CN1C(=O)OC(C)(C)C (stereo unspecified)
6. CCN(CC)CCCC(C)Nc1ccnc(/C=C/c2ccc(Cl)cc2)c1 (stereo unspecified)
7. O=C1c2ccccc2C(=O)c2sc(Nc3ccc([N+](=O)[O-])cc3)nc21

[5.01, 4, 2.48, 34.3, 28.6, 4.98, 6.82]

* * *

- Test system: MALME-3M melanoma
- test details: NCI tumour cell line growth inhibition, 48 h
metric: TGI

Here is how some compounds turned out for TGI.
1) CC(C)(C)NC(=S)N/N=C/c1ccccn1: > 100 µM
2) O=C(NCc1ccccc1)C1C(=O)C(=O)N(Cc2ccccc2)C1=O (stereo not given): > 100 µM

Return reported TGI values for all items listed beneath this line.
1. C/C(=C\CC/C=C(\C)CC/C=C(\C)CCC1SC1(C)C)CC/C=C(\C)CCC1OC1(C)C (stereo not given)
2. O=C(O)CCC(NC(=O)c1ccc(CNc2nc3cc(C(F)(F)F)ccc3nc2C(=O)O)cc1)C(=O)O (stereo not given)
3. Nn1c(CCCCCCCCc2n[nH]c(=S)n2N)n[nH]c1=S
4. COc1cc2c(cc1O)C(=O)O[C@@H]1CC=C3CCN(C)[C@H]3[C@H]21
5. CC1(C)CC[C@]2(CO)CC[C@]3(C)C(=CC[C@@H]4[C@@]5(C)CCNCC(C)(C)[C@@H]5CC[C@]43C)[C@@H]2C1

> 100 µM
> 100 µM
> 100 µM
> 25 µM
3.71 µM
